Data origin, for the record: patent US20260317437

Below is a list of entries, each paired with its recorded Kd value.
# experimentalTarget: GCGR extracellular domain (human, UniProt P47871)
# Sequence (P47871 26-477): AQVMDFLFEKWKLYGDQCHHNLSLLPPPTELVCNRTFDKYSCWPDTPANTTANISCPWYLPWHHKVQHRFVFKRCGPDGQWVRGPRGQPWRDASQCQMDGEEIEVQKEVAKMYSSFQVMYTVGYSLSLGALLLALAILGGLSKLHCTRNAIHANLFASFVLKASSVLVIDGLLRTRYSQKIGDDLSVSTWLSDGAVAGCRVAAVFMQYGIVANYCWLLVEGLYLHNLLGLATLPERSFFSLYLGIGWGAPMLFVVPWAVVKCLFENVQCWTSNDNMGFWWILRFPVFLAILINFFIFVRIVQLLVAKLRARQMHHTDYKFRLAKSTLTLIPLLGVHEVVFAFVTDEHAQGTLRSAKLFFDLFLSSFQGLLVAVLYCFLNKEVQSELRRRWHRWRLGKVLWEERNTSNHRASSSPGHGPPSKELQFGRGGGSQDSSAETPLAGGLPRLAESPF
# assayDetails: SPR
Number in nM, nothing else.

VL Y94H (antibody, V domains shown) VH: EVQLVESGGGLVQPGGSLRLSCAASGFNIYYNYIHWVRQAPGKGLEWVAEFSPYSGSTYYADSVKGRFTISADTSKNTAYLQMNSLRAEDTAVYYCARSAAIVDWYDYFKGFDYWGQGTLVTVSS VL: DIQMTQSPSSLSASVGDRVTITCRASQSVSSAVAWYQQKPGKAPKLLIYSASSLYSGVPSRFSGSRSGTDFTLTISSLQPEDFATYYCQQYGSHLYTFGQGTKVEIK ... 3.02

Prompt line: Given the binder VL Y94Q (antibody, V domains shown) VH: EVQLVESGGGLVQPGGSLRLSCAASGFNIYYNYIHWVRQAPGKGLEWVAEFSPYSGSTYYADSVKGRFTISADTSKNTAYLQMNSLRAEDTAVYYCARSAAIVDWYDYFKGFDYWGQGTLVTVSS VL: DIQMTQSPSSLSASVGDRVTITCRASQSVSSAVAWYQQKPGKAPKLLIYSASSLYSGVPSRFSGSRSGTDFTLTISSLQPEDFATYYCQQYGSQLYTFGQGTKVEIK , what is its reported Kd?
Response line: 2.08

Prompt line: Next entry: VL Y94V (antibody, V domains shown) VH: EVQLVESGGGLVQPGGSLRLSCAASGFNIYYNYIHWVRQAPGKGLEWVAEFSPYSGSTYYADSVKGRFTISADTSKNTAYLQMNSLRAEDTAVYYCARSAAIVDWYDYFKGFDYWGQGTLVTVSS VL: DIQMTQSPSSLSASVGDRVTITCRASQSVSSAVAWYQQKPGKAPKLLIYSASSLYSGVPSRFSGSRSGTDFTLTISSLQPEDFATYYCQQYGSVLYTFGQGTKVEIK
Response line: 2.46

Prompt line: Next entry: VH Y30V (antibody, V domains shown) VH: EVQLVESGGGLVQPGGSLRLSCAASGFNIVYNYIHWVRQAPGKGLEWVAEFSPYSGSTYYADSVKGRFTISADTSKNTAYLQMNSLRAEDTAVYYCARSAAIVDWYDYFKGFDYWGQGTLVTVSS VL: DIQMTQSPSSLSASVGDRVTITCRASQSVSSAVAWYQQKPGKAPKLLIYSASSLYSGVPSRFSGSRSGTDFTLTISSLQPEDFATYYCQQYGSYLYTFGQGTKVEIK
Response line: 6.68
